src = patent US20200262913A1

- assayedTarget: T1, recombinant human IL-31 (as used in the NHK STAT3 phosphorylation assay of Example 5) (human, UniProt Q6EBC2 24-164, limits assumed)
- T1 sequence: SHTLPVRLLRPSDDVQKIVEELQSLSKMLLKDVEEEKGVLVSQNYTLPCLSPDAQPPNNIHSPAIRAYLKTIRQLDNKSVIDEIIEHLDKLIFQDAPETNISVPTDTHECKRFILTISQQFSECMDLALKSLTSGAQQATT
- procedureText: cell-based or functional assay
measuredEndpoint: IC50, IL-31-induced STAT3 phosphorylation in NHK, Exp 9 (nM)
One number for each entry, in nM.

{"binder": "humanized 292.12.3.1 construct clone 9 (12VH1-gly + HC(fback)) (antibody, human IgG4, V domains shown, also called 09) VH: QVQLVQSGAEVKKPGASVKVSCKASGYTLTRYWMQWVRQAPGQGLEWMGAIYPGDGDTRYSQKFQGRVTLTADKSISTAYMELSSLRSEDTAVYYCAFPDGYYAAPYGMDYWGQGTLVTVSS VL: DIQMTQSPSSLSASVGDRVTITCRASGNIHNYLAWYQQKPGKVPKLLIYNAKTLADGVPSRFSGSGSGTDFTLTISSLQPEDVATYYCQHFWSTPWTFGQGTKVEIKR", "reportedResult": 7.1}

Now for another entry.
In: // Input: humanized 292.12.3.1 construct clone 28 (12VH1-gly + HC(F29L, R71A, R94F) + LC(F71Y)) (antibody, human IgG4, V domains shown) VH: QVQLVQSGAEVKKPGASVKVSCKASGYTLTRYWMQWVRQAPGQGLEWMGAIYPGDGDTRYSQKFQGRVTMTADTSISTVYMELSSLRSEDTAVYYCAFPDGYYAAPYGMDYWGQGTLVTVSS VL: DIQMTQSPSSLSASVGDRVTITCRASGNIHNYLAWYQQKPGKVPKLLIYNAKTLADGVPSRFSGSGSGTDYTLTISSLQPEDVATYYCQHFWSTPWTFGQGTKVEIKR . Output its IC50, IL-31-induced STAT3 phosphorylation in NHK, Exp 9 only.
Out: 5.95
